Tested on: EBV
Experiment: Anti-EBV activity, EBV DNA slot blot in H1 cells
Format: cell-based, Epstein Barr virus
Conditions: concentration that inhibits 50% of virus growth, 5 days
Experimental: Virus growth inhibition assay. Confluent virus permissive cells in 12-well plates are inoculated with the virus at 30˜40 pfu/well. After one-hour adsorption at 37° C., the inoculum is replaced with the medium containing 10% of dialyzed FBS and tested compounds at various dosages. […] The viral DNA is detected by hybridization with ^32P-labeled DNA fragment of viral specific gene. Autoradiographic results are quantitated by Personal Densitometer SI (Molecular Dynamics., Sunnyvale, Calif.). […]
pIC50: −log10 of the molar value.
Some compounds, each annotated with its measured pIC50.
MEASUREMENT LABEL: pIC50

compound="O=c1[nH]c(=O)n([C@@H]2CO[C@H](CO)O2)cc1I [L-IOddU, reference compound]" measurement_label=pIC50 observed_value=7.00
compound="O=c1[nH]c(=O)n([C@@H]2CO[C@H](CO)O2)cc1Br [L-BrOddU, reference compound]" measurement_label=pIC50 observed_value=6.70
